- target.of.assay: BdorCSP2 (Bactrocera dorsalis)
- Construct: gene CSP2; mature BdorCSP2 (signal peptide removed), recombinant from E. coli BL21 (DE3), His-tag-removed; GenBank KC897022
- Sequence (S5TKX2 23-156): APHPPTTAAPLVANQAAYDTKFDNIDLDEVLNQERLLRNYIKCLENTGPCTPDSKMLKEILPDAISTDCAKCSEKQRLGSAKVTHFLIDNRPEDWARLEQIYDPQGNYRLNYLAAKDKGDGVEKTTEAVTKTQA
- protocol.notes: competitive fluorescence binding assay, displacement of 1-NPN
quantity.kind: pKd
Convention used: pKd is expressed as -log10 of the molar concentration.

Query block: Param readout = pKd; param system = BdorCSP2 (Bactrocera dorsalis); param query = CC1(C)[C@H]2O[C@H]2[C@H]2[C@](C)(O)[C@@H]3CC[C@@H]4[C@@H](O)[C@@]3(C[C@@H](O)[C@@]21O)C[C@@]4(C)O ; response: value
Result block: 4.46

* * *

- target.of.assay: BdorCSP2 (Bactrocera dorsalis, UniProt S5TKX2)
- Construct: gene CSP2; mature BdorCSP2 (signal peptide removed), recombinant from E. coli BL21 (DE3), His-tag-removed; GenBank KC897022
- protocol.notes: fluorescent probe titration with Scatchard analysis
- Format: binding
quantity.kind: Kd
Note to self: number, then unit, no commentary.

Query block: For the compound shown here, c1ccc(Nc2cccc3ccccc23)cc1 [N-phenyl-1-naphthylamine] , give the reported Kd.
Result block: 2.71 µM
